- Study target: rhesus H3 receptor (Macaca mulatta, UniProt Q865E1)
- Sequence (Q865E1 1-445): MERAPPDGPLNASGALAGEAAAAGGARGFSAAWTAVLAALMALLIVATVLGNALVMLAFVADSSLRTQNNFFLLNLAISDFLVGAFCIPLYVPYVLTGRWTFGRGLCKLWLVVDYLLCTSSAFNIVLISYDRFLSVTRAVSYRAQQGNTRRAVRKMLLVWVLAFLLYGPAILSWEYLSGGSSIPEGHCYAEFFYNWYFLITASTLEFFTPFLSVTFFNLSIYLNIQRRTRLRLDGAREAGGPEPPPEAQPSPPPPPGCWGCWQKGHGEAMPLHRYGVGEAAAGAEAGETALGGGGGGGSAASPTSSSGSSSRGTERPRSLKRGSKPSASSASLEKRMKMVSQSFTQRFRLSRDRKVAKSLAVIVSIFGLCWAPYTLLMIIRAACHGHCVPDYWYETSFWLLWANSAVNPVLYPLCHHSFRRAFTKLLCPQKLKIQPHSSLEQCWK
Lab note: cut-off is 900 pM. Strictly less in Ki is true (1). Exactly 900 pM or more is false (0).

The following compounds have reported results that may help.
In [3]: df
Out[3]:
                                   compound      group
0  Cc1cc(N2CC[C@@H](N3CCC[C@H]3C)C2)ccc1N1CCC2(CCN(C(=O)OC(C)(C)C)CC2)C1=O  false (0)
1  Cc1cc(N2CC[C@H](N3CCC[C@H]3C)C2)ccc1N1CCC2(CCN(CC3CCCC3)CC2)C1=O  false (0)
2  C[C@H]1CCCN1C1CCN(c2ccc(N3CCC4(CCNCC4)C3=O)c(F)c2)CC1.Cl [Example 46, Hydrochloride]   true (1)

Query: # check: Ki < 900 pM for C[C@H]1CCCN1[C@H]1CCN(c2ccc(N3CCCC4(CCN(C5CCOCC5)CC4)C3=O)cc2)C1
Response: true (1)

Query: # check: Ki < 900 pM for C[C@H]1CCCN1[C@H]1CCN(c2ccc(N3CCCC4(CCN(CC5CC5)CC4)C3=O)cc2)C1
Response: true (1)

Query: # check: Ki < 900 pM for C[C@H]1CCCN1[C@H]1CCN(c2ccc(N3CCCC4(CCN(Cc5ccco5)CC4)C3=O)c(F)c2)C1
Response: true (1)

Values were extracted from patent US8604046B2.
